Values from ChEMBL document CHEMBL4177523

Experiment: Retention time of the compound by mass spectrometric analysis
Type: physicochemical
Square brackets hold non-standard residues; d marks the D form. Peptide text beside a SMILES is read from it. ξ: configuration not given here. ξpS = NC(COP(=O)(O)O)C(=O)O
# Retention_time annotations
MEASUREMENT_NAME: Retention_time (min)

* CC[C@H](C)[C@H](NC(=O)[C@@H](N)CO)C(=O)N[C@@H](CC(=O)O)C(=O)N[C@@H](CCSC)C(=O)N[C@H](C(=O)N[C@@H](CC(=O)O)C(=O)NC(COP(=O)(O)O)C(=O)N1CCC[C@H]1C(=O)N[C@@H](CCC(N)=O)C(=O)N[C@@H](CC(C)C)C(=O)N[C@@H](C)C(=O)N[C@H](C(N)=O)[C@@H](C)O)C(C)C (some centres undefined) (H-SIDMVD[ξpS]PQLAT-NH2) | 26.3
* CC(C)C[C@H](NC(=O)[C@H](CCC(N)=O)NC(=O)[C@@H]1CCCN1C(=O)[C@@H](N)CO)C(=O)N[C@@H](C)C(=O)N[C@H](C(N)=O)[C@@H](C)O (H-SPQLAT-NH2) | 25.7
* CC[C@H](C)[C@H](NC(=O)[C@@H](N)CO)C(=O)N[C@@H](CC(=O)O)C(=O)N[C@@H](CCSC)C(=O)N[C@H](C(=O)N[C@@H](CC(=O)O)C(=O)O)C(C)C (H-SIDMVD-OH) | 18.1
* CC[C@H](C)[C@H](NC(=O)[C@H](CO)NC(=O)CNC(=O)[C@@H](NC(=O)[C@H](CO)NC(C)=O)[C@@H](C)O)C(=O)N[C@@H](CC(=O)O)C(=O)N[C@@H](CCSC)C(=O)N[C@H](C(=O)N[C@@H](CC(=O)O)C(=O)O)C(C)C (Ac-STGSIDMVD-OH) | 30.6
